- protocolText: Iodine color number according to DIN 6162:2014-09
- Type: physicochemical
- runConditions: Polymer P9 with stabilizer; 60 d 40° C.
recordedEndpoint: Iodine color number, 60 d 40° C.
Give the value as a plain number.

-- ask Bench note: what Iodine color number, 60 d 40° C. did `CCCCCCCCn1sccc1=O` show?
-- reply 15.5

-- ask Now give it for `O=c1[nH]sc2ccccc12` too.
-- reply 12.8

-- ask Now give it for CCCCNC(=O)OCC#CI [Iodopropynyl butyl carbamate, iodopropynyl butyl carbamate] too.
-- reply 16.9

-- ask Now give it for `CCCCCCCCn1sc(Cl)c(Cl)c1=O` too.
-- reply 14.7

====

In this section we review reported active-substance concentration, 60 d 40° C. values for a set of compounds.
- protocolText: Analysis of active substance: preservative concentration before and after storage in VI-containing polymer solution
- Type: physicochemical
- runConditions: in Polymer P7; storage 60 d at 40° C.
- Method: Stability of Preservatives in VI-Containing Polymers: The following stabilizers for VI-containing polymers (here: aqueous solution of a copolymer of vinylpyrrolidone and vinylimidazole) were tested. MIT, BIT, CMIT, OIT, DCOIT and iodopropynyl butyl carbamate were determined by RP chromatography with UV detection after dilution of the sample to be tested. An RP18 column was used for this purpose, with an eluent composed of an acid-methanol mixture under isocratic conditions.
// units = ppm; emit number, no label

-- ask Bench note: what active-substance concentration, 60 d 40° C. did CCCCNC(=O)OCC#CI [Iodopropynyl butyl carbamate, iodopropynyl butyl carbamate] show?
-- reply 87

====

- protocolText: Analysis of active substance: preservative concentration before and after storage in VI-containing polymer solution
- Assay type: physicochemical
- runConditions: in Polymer P6; storage 60 d at 40° C.
In this section we review reported active-substance concentration, 60 d 40° C. values for a set of compounds.
Remember to quote the unit after the number.

Solved entries:
compound | result
CCCCCCCCCCCCCCCC[N+](C)(C)Cc1ccccc1.[Cl-] [Polymer 16-BAC, cetylalkonium chloride] | 954 ppm
CCCCCCCCn1sccc1=O | 68 ppm
CCCCCCCCCC[N+](C)(C)CCCCCCCCCC.[Cl-] [DDAC, didecyldimethylammonium chloride] | 943 ppm

-- ask Bench note: what active-substance concentration, 60 d 40° C. did CCCCNC(=O)OCC#CI [Iodopropynyl butyl carbamate, iodopropynyl butyl carbamate] show?
-- reply 80 ppm

-- ask Now give it for `Cn1sc(Cl)cc1=O` too.
-- reply 55 ppm

-- ask Now give it for `O=c1[nH]sc2ccccc12` too.
-- reply 66 ppm

-- ask Now give it for `CCCCCCCCn1sc(Cl)c(Cl)c1=O` too.
-- reply 98 ppm

-- ask Now give it for `Cn1sccc1=O` too.
-- reply 87 ppm

====

- protocolText: Iodine color number according to DIN 6162:2014-09
- Format: physicochemical
- runConditions: Polymer P4 with stabilizer; start
In this section we review reported Iodine color number, start values for a set of compounds.

Solved entries:
compound | Iodine color number, start
CCCCNC(=O)OCC#CI [Iodopropynyl butyl carbamate, iodopropynyl butyl carbamate] | 3.4
O=c1[nH]sc2ccccc12 | 3.4

-- ask Bench note: what Iodine color number, start did `CCCCCCCCn1sccc1=O` show?
-- reply 3.3

-- ask Now give it for CCCCCCCCCCCCCCCC[N+](C)(C)Cc1ccccc1.[Cl-] [Polymer 16-BAC, cetylalkonium chloride] too.
-- reply 3.1

-- ask Now give it for CCCCCCCCCC[N+](C)(C)CCCCCCCCCC.[Cl-] [DDAC, didecyldimethylammonium chloride] too.
-- reply 3.3

-- ask Now give it for `CCCCCCCCn1sc(Cl)c(Cl)c1=O` too.
-- reply 3.4

-- ask Now give it for `Cn1sc(Cl)cc1=O` too.
-- reply 3.2

-- ask Now give it for `Cn1sccc1=O` too.
-- reply 3.4

====

- protocolText: Analysis of active substance: preservative concentration before and after storage in VI-containing polymer solution
- Assay type: physicochemical
- runConditions: in Polymer P2; storage 60 d at 40° C.
recordedEndpoint: active-substance concentration, 60 d 40° C.

Solved entries:
molecule | result
CCCCNC(=O)OCC#CI [Iodopropynyl butyl carbamate, iodopropynyl butyl carbamate] | 122 ppm
CCCCCCCCCC[N+](C)(C)CCCCCCCCCC.[Cl-] [DDAC, didecyldimethylammonium chloride] | 940 ppm
O=c1[nH]sc2ccccc12 | 80 ppm
CCCCCCCCCCCCCCCC[N+](C)(C)Cc1ccccc1.[Cl-] [Polymer 16-BAC, cetylalkonium chloride] | 940 ppm
CCCCCCCCn1sc(Cl)c(Cl)c1=O | 109 ppm
Cn1sc(Cl)cc1=O | 66 ppm
CCCCCCCCn1sccc1=O | 84 ppm

Next molecule, please.
-- ask Bench note: what active-substance concentration, 60 d 40° C. did `Cn1sccc1=O` show?
-- reply 116 ppm

====

- protocolText: Analysis of active substance: preservative concentration before and after storage in VI-containing polymer solution
- Format: physicochemical
- runConditions: in Polymer P3; before storage
recordedEndpoint: active-substance concentration, 0 d, RT (ppm)
// units = ppm; emit number, no label

Solved entries:
compound | readoutNumber
Cn1sccc1=O | 250
Cn1sc(Cl)cc1=O | 150
CCCCCCCCn1sccc1=O | 250

-- ask Bench note: what active-substance concentration, 0 d, RT did `O=c1[nH]sc2ccccc12` show?
-- reply 150

-- ask Now give it for `CCCCCCCCn1sc(Cl)c(Cl)c1=O` too.
-- reply 300

-- ask Now give it for CCCCCCCCCC[N+](C)(C)CCCCCCCCCC.[Cl-] [DDAC, didecyldimethylammonium chloride] too.
-- reply 950

-- ask Now give it for CCCCNC(=O)OCC#CI [Iodopropynyl butyl carbamate, iodopropynyl butyl carbamate] too.
-- reply 250

-- ask Now give it for CCCCCCCCCCCCCCCC[N+](C)(C)Cc1ccccc1.[Cl-] [Polymer 16-BAC, cetylalkonium chloride] too.
-- reply 1000

====

- protocolText: Physical stability; visual assessment (color, turbidity, phase separation)
- Assay type: physicochemical
- Set-up: key: ++: no discernible change with respect to color, turbidity or phase separation; +: marginal change in color number, somewhat increased Tyndall effect but no turbidity; 0: easily discernible increase in color number and moderate turbidity−no phase separation; −: turbidity and change in color number readily discernible by visual assessment; −−: strong color change with strong turbidity and incipient phase separation
- runConditions: Polymer P1 with stabilizer
recordedEndpoint: Physical stability, 60 d 40° C.*

Solved entries:
molecule | result
Cn1sc(Cl)cc1=O [CMIT, 5-chloro-N-methylisothiazolin-3-one] | −−
O=c1[nH]sc2ccccc12 [BIT, 1,2-benzisothiazolin-3-one] | −
CCCCNC(=O)OCC#CI [Iodopropynyl butyl carbamate, iodopropynyl butyl carbamate] | −
Cn1sccc1=O [MIT, methyl-4-isothiazolin-3-one] | −

Next molecule, please.
-- ask Bench note: what Physical stability, 60 d 40° C.* did CCCCCCCCn1sc(Cl)c(Cl)c1=O [DCOIT, dichloroctylisothiazolinone] show?
-- reply −−

====

- protocolText: Analysis of active substance: preservative concentration before and after storage in VI-containing polymer solution
- Format: physicochemical
- runConditions: in Polymer P3; storage 60 d at 40° C.
In this section we review reported active-substance concentration, 60 d 40° C. values for a set of compounds.
// units = ppm; emit number, no label

Solved entries:
compound | readoutNumber
CCCCCCCCCC[N+](C)(C)CCCCCCCCCC.[Cl-] [DDAC, didecyldimethylammonium chloride] | 930
CCCCCCCCCCCCCCCC[N+](C)(C)Cc1ccccc1.[Cl-] [Polymer 16-BAC, cetylalkonium chloride] | 952

Next compound, please.
-- ask Bench note: what active-substance concentration, 60 d 40° C. did CCCCCCCCn1sc(Cl)c(Cl)c1=O [DCOIT, dichloroctylisothiazolinone] show?
-- reply 112

====

- protocolText: Analysis of active substance: preservative concentration before and after storage in VI-containing polymer solution
- Type: physicochemical
- runConditions: in Polymer P5 (HP56); storage 28 d at 40° C.
- Procedure: Stability of Preservatives in VI-Containing Polymers: The following stabilizers for VI-containing polymers (here: aqueous solution of a copolymer of vinylpyrrolidone and vinylimidazole) were tested. MIT, BIT, CMIT, OIT, DCOIT and iodopropynyl butyl carbamate were determined by RP chromatography with UV detection after dilution of the sample to be tested. An RP18 column was used for this purpose, with an eluent composed of an acid-methanol mixture under isocratic conditions.
# strict inequality: active-substance concentration, 28 d, 40° C. < 200 ppm yields label 1, everything else yields label 0

compound | classLabel
CCCCCCCCn1sccc1=O | label 1
CCCCNC(=O)OCC#CI [Iodopropynyl butyl carbamate, iodopropynyl butyl carbamate] | label 1
CCCCCCCCCCCCCCCC[N+](C)(C)Cc1ccccc1.[Cl-] [Polymer 16-BAC, cetylalkonium chloride] | label 0
CCCCCCCCn1sc(Cl)c(Cl)c1=O | label 1
Cn1sccc1=O | label 1

-- ask Determine whether this compound shows active-substance concentration, 28 d, 40° C. lower than 200 ppm (ties excluded): `Cn1sc(Cl)cc1=O`
-- reply label 1

-- ask Now give it for CCCCCCCCCC[N+](C)(C)CCCCCCCCCC.[Cl-] [DDAC, didecyldimethylammonium chloride] too.
-- reply label 0

-- ask Now give it for `O=c1[nH]sc2ccccc12` too.
-- reply label 1
